Origin of values: the supplement of paper PMC9112550

Test system: Escherichia coli TOP10;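 further: peptides expressed intracellularly from a pBAD plasmid library in pooled LB shake-flask culture, induced with 0.3% L-arabinose, DNA abundance read by NGS, three biological replicates, DESeq2 with apeglm shrinkage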
Experiment: shrunken log2 fold change of peptide-encoding DNA abundance (4.5 h post-induction vs induction); higher = less antimicrobial activity (less host growth inhibition)
Details: time post-induction: 4.5 h; library: site-saturation at positions 5, 18, 19, 20
For each of the sequences below, state its shrunken log2 fold change.
Answers are plain numbers.

Use these answered entries as a reference point.
- biosequence: "RRIRSRPPRLPRPRPRPHREPRP"
  shrunken log2 fold change: -0.14
- biosequence: "RRIRWRPPRLPRPRPRPLIAPRP"
  shrunken log2 fold change: 0.273
- biosequence: "RRIRYRPPRLPRPRPRPTTVPRP"
  shrunken log2 fold change: -0.243

Please give shrunken log2 fold change for each item listed below.
1. RRIRGRPPRLPRPRPRPRIYPRP
2. RRIRHRPPRLPRPRPRPYADPRP
3. RRIRQRPPRLPRPRPRPWDFPRP
4. RRIRMRPPRLPRPRPRPVPSPRP

**A:**
1. 1.15
2. -0.00783
3. 0.2
4. 0.588

Please give shrunken log2 fold change for each item listed below.
1. RRIRQRPPRLPRPRPRPWFLPRP
2. RRIRDRPPRLPRPRPRPEKRPRP
3. RRIRRRPPRLPRPRPRPCEYPRP

**A:**
-0.0618
-0.0167
0.0177
